- Assay comment: BET inhibitor-based combinations targeting novel dependencies in MECOM-rearranged (r) AML: UCSD-AML1 cell line (AID 2202235); further: nearly all actives have a fitted effect of over 40% in size
- Assay conditions: UCSD-AML1 AML cells viability, CellTiter-Glo, 48 h; series mostly up to 46 µM
Records with an inconclusive call do not appear. Calls of active or inactive are those of the source. The call rests on the fitted dose curve; in most records, active means well fitted inhibition curve with a large enough effect; inconclusive means small, poorly fitted or top-dose-only effect; inactive means no such curve, though single readings can be large or run the other way.
One label from this list, please: active, inactive

Illustrative cases are given below, each with its answer.
[
  {
    "Compound": "Nc1[nH]c(=O)ncc1F",
    "Class": "inactive"
  },
  {
    "Compound": "O=C(Nc1ccnc(NC(=O)C2CC2)c1)c1c(Cl)cccc1Cl",
    "Class": "active"
  },
  {
    "Compound": "CN(C)C1CCN(C(=O)c2ccc(NC(=O)Nc3ccc(-c4nc(N5CCOCC5)nc(N5CCOCC5)n4)cc3)cc2)CC1",
    "Class": "active"
  },
  {
    "Compound": "C[Se]CCC(N)C(=O)O (stereo unspecified)",
    "Class": "inactive"
  },
  {
    "Compound": "CCN(CC)CCOc1ccc(Cc2ccccc2)cc1",
    "Class": "inactive"
  },
  {
    "Compound": "COC(=O)C1C2CC3c4[nH]c5cc(OC)ccc5c4CCN3CC2CC(OC(=O)c2cc(OC)c(OC)c(OC)c2)C1OC (stereo unspecified)",
    "Class": "inactive"
  },
  {
    "Compound": "CCNC(=O)c1noc(-c2cc(C(C)C)c(O)cc2O)c1-c1ccc(CN2CCOCC2)cc1",
    "Class": "active"
  },
  {
    "Compound": "Cn1cc(-c2ccncc2)c(-c2ccc(OCc3ccc4ccccc4n3)cc2)n1",
    "Class": "inactive"
  }
]

Turning now to a further compound:
## Input What did this assay record as the result for Cn1cncc1C(N)(c1ccc(Cl)cc1)c1ccc2c(c1)c(-c1cccc(Cl)c1)cc(=O)n2C (stereo unspecified) ?
## Output active

---

- Tgt: Aldehyde dehydrogenase, mitochondrial (Homo sapiens)
- Assay comment: qHTS for Inhibitors of the Aldehyde Dehydrogenase Family (ALDH2) Primary screen (AID 2061308);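 further: plate controls were vehicle for no effect and reference inhibitor for full effect; nearly all actives have a fitted effect of over 55% in size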
- Assay conditions: ALDH2 enzyme inhibition qHTS, 1536-well; series mostly up to 56 µM
Records with an inconclusive call do not appear. Activity calls are given as the source filed them. The call rests on the fitted dose curve; in most records, active means well fitted inhibition curve with a large enough effect; inconclusive means small, poorly fitted or top-dose-only effect; inactive means flat fitted curve, though single readings scatter.
Quantity kind: activity change, negative = inhibition

The following compounds have reported results that may help.
[
  {
    "Compound": "OC1(c2ccc(Cl)c(C(F)(F)F)c2)CCN(CCCC(c2ccc(F)cc2)c2ccc(F)cc2)CC1",
    "Observed measurement": "inactive"
  },
  {
    "Compound": "COc1cc(/C=C/C(=O)O)ccc1O[C@@H]1O[C@H](CO)[C@@H](O)[C@H](O)[C@H]1O[C@@H]1OC[C@](O)(CO)[C@H]1O",
    "Observed measurement": "inactive"
  },
  {
    "Compound": "O=C(Nc1ccn(Cc2c(F)cccc2C(F)(F)F)n1)c1c(F)cccc1F",
    "Observed measurement": "inactive"
  },
  {
    "Compound": "CSc1ccc(C(=O)N[C@@H]2CCCC[C@@H]2NC(=O)CNC(=O)c2cc(C(F)(F)F)ccc2NC(=O)NC(C)C)cc1",
    "Observed measurement": "inactive"
  },
  {
    "Compound": "N#Cc1ccc(Oc2ccc3c(c2)COB3O)cc1",
    "Observed measurement": "inactive"
  }
]

Would you mind giving activity change, negative = inhibition for every compound in the list below?
1. O=C(c1c2ccccc2cc2ccccc12)N1CCC(N2CCC[C@@H](C(=O)N3CCOCC3)C2)CC1
2. C[C@@H]1O[C@@H](O[C@H]2[C@H](O[C@H]3[C@H](O[C@H]4CC[C@@]5(C)C(CC[C@]6(C)C5CC=C5[C@@H]7CC(C)(C)C[C@@H](O)[C@]7(C)CC[C@]56C)[C@@]4(C)CO)O[C@H](C(=O)O)[C@@H](O)[C@@H]3O)O[C@H](C(=O)O)[C@H](O)[C@@H]2O)[C@H](O)[C@H](O)[C@H]1O (some centres not stated)

## Output
1: inactive; 2: inactive

---

- Assay comment: BET inhibitor-based combinations targeting novel dependencies in MECOM-rearranged (r) AML: AML-194 cell line (AID 2202237;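 further: plate controls were vehicle wells for no effect and wells without cells for full effect; nearly all actives have a fitted effect of over 40% in size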)
- Assay conditions: AML-194 (MECOM-r AML) viability, CellTiter-Glo, 48 h; series mostly up to 46 µM
Records with an inconclusive call do not appear. Active and inactive are the calls of the source. Calls follow the shape of the dose curve; as a rule, active = well fitted inhibition curve with a large enough effect; inconclusive = small, poorly fitted or top-dose-only effect; inactive = flat fitted curve, though single readings scatter.
// allowed return values: active, inactive

Illustrative cases are given below, each with its answer.
[
  {
    "Compound": "O=C(Nc1cc(Cl)cc2c1[nH]c1cnccc12)c1cccnc1",
    "Class": "inactive"
  },
  {
    "Compound": "O=C1CCC(N2C(=O)c3ccccc3C2=O)C(=O)N1 (stereo not given)",
    "Class": "inactive"
  },
  {
    "Compound": "O=C(CCc1ccc(O)cc1)c1c(O)cc(O)cc1O",
    "Class": "inactive"
  },
  {
    "Compound": "C[Se]CCC(N)C(=O)O (stereo not given)",
    "Class": "inactive"
  },
  {
    "Compound": "CNC(=O)c1ccc(C)c(-n2c(C)cc(OCc3ccc(F)cc3F)c(Br)c2=O)c1",
    "Class": "inactive"
  }
]

Could you now look at the following compound, please?
## Input Record request — test call for CN1CCN(C2=Nc3cc(Cl)ccc3Nc3ccccc32)CC1
## Output inactive

---

Exercise: for every item that follows, state its recorded viability.
- Assay comment: BET inhibitor-based combinations targeting novel dependencies in MECOM-rearranged (r) AML: SET-2 cell line (AID 2202231);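 further: plate controls were DMSO treated cells for no effect and wells without cells for full effect; nearly all actives have a fitted effect of over 35% in size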
- Assay conditions: SET-2 AML cells viability, CellTiter-Glo luminescence, 48 h; active compounds read low, concentration not given here
Results filed as inconclusive are left out.
One number for each entry, in %.

[
  {
    "Molecule": "OC(c1ccc(-c2ccc(CN3CCN(Cc4ccncc4)CC3)cc2)c(F)c1)(C(F)(F)F)C(F)(F)F",
    "Unit symbol": "%",
    "viability": 101
  }
]

Hey, can you go through the list below and give me viability for every item?
1. COc1ccc(-n2nc(C(N)=O)c3c2C(=O)N(c2ccc(N4CCCCC4=O)cc2)CC3)cc1
2. CCn1c(-c2nonc2N)nc2c(C#CC(C)(C)O)ncc(OC[C@H]3CCCNC3)c21
3. Nc1[nH]c(=O)ncc1F

## Output
1. 101
2. 101
3. 119

---

- Assay comment: BET inhibitor-based combinations targeting novel dependencies in MECOM-rearranged (r) AML: MV-4-11 cell line (AID 2202233); further: nearly all actives have a fitted effect of over 45% in size; further: potency means the concentration at half of the fitted maximal effect
- Assay conditions: MV-4-11 AML viability, CellTiter-Glo luminescence, 48 h; series mostly up to 46 µM
- Experimental: Ecotropic viral insertion site 1 (EVI1) is located on chromosome 3q26.2 as part of the MECOM (MDS and EVI1 complex) locus. […] A collection of 2480 mechanistically annotated dugs (MIPE v5.0) was used to screen four 3q26.2 rearranged AML cell lines and three non-3q26.2 rearranged AML cell lines. […] Cell viability was determined by luminescence based, Cell Titer Glo assay (Promega). […] Luminescence readings were taken using a Viewlux (PerkinElmer) with a 2 s exposure time per plate. […]
Inconclusive results are not listed. Calls of active or inactive are those of the source. Calls come from the whole dose curve; as a rule, active = well fitted inhibition curve with a large enough effect; inconclusive = small, poorly fitted or top-dose-only effect; inactive = no such curve, though single readings can be large or run the other way.
Quantity kind: Potency

Below are worked cases with known answers.
[
  {
    "Compound": "NS(=O)(=O)OC[C@@H]1C[C@@H](n2ccc3c(N[C@H]4CCc5ccccc54)ncnc32)C[C@@H]1O",
    "Potency": "0.209 µM (active)"
  },
  {
    "Compound": "C=CCn1c(=O)c2cnc(Nc3ccc(N4CCN(C)CC4)cc3)nc2n1-c1cccc(C(C)(C)O)n1",
    "Potency": "0.742 µM (active)"
  },
  {
    "Compound": "C[C@H](NC(=O)Cc1cc(F)cc(F)c1)C(=O)N[C@@H]1C(=O)N(C)c2ccccc2-c2ccccc21",
    "Potency": "inactive"
  },
  {
    "Compound": "O=C(O)c1cc(=O)[nH]c(=O)[nH]1",
    "Potency": "inactive"
  },
  {
    "Compound": "OCc1ccccc1O[C@@H]1O[C@H](CO)[C@@H](O)[C@H](O)[C@H]1O",
    "Potency": "inactive"
  }
]

State recorded Potency for all listed compounds.
1. CC(Cc1ccc(O)c(O)c1)(NN)C(=O)O (stereo not given)
2. COc1cc2c(Oc3ccc4[nH]c(C)cc4c3F)ncnc2cc1OCCCN1CCCC1

## Output
["inactive", "18.6 µM (active)"]

---

- Tgt: Cellular tumor antigen p53 (Homo sapiens) (UniProt P04637)
- Sequence (P04637 whole entry, looked up): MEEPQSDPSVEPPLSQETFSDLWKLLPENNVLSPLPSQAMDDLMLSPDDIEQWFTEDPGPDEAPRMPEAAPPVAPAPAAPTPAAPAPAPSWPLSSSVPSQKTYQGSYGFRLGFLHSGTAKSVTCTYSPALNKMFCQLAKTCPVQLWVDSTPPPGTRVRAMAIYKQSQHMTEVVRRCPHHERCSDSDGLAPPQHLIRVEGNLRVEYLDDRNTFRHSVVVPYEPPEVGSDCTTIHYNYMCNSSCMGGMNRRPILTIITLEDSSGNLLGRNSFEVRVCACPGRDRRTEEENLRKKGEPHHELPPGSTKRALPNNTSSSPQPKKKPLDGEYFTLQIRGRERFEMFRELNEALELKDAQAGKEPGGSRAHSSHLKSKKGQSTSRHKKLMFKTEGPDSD
- Assay comment: Primary qHTS for small molecule compounds that upregulate eGFP-tagged delta133p53alpha (in N-terminal) cells. (AID 2060322);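 further: cells pre-induced with doxycycline then dosed without doxycycline; 0% = DMSO vehicle and 100% = reference activator; nearly all actives have a fitted effect of over 75% in size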
- Assay conditions: NCI-H358 eGFP-delta133p53alpha fluorescence, 24 h; active compounds read high
Records with an inconclusive call do not appear.
Exercise: for every item that follows, state its recorded activation.
Numbers only, in %.

Guide cases for activation, answers given:
[
  {
    "Compound": "Cc1cc(Cl)ccc1COc1ccnn1-c1cc(C(=O)O)ccn1",
    "Tgt": "Cellular tumor antigen p53 (Homo sapiens) (UniProt P04637)",
    "activation / %": 5.67
  },
  {
    "Compound": "CN(C)CCCc1cc(C(=O)Nc2ccc(-c3ccncc3)cc2)ccc1O",
    "Tgt": "Cellular tumor antigen p53 (Homo sapiens) (UniProt P04637)",
    "activation / %": -14.9
  },
  {
    "Compound": "COc1cc2nc(N3CCN(C)CC3)nc(NC3CCN(Cc4ccccc4)CC3)c2cc1OC",
    "Tgt": "Cellular tumor antigen p53 (Homo sapiens) (UniProt P04637)",
    "activation / %": 2.33
  },
  {
    "Compound": "C/C(=C\\Cc1c(O)c(Cl)c(C)c(C=O)c1O)CC/C=C(\\C)[C@H]1CC(=O)C(C)(C)O1",
    "Tgt": "Cellular tumor antigen p53 (Homo sapiens) (UniProt P04637)",
    "activation / %": -20.6
  },
  {
    "Compound": "CC(C)CCCC(C)N (stereo not drawn)",
    "Tgt": "Cellular tumor antigen p53 (Homo sapiens) (UniProt P04637)",
    "activation / %": 0.565
  }
]

Go through the list and state activation for each entry.
1. CCOC(CN1C(=O)[C@](CC(=O)Nc2ccc(C)cc2)(NC(=O)Nc2ccc(C)cc2)c2ccccc21)OCC
2. O=c1[nH]cnc2c([C@@H]3N[C@H](CO)[C@@H](O)[C@H]3O)c[nH]c12
3. CC[C@@H](c1ccc(F)c(F)c1)n1c(C(=O)OC)c(-c2ccno2)[nH]c1=S
4. CC1(C)CC(=O)N(CCCCN2CCN(c3ncccn3)CC2)C(=O)C1

## Output
1. 0.237
2. 10.3
3. -6.68
4. -2.86

Working through the 8 compounds below one at a time, give activation for each.
1. C=C1[C@@H](C2=CC(=O)OC2)CC[C@@]2(O)[C@@H]1CC1[C@H]2CC[C@@H]2C[C@@H](O[C@H]3O[C@@H](C)[C@@H](O[C@@H]4O[C@H](CO[C@@H]5O[C@H](CO)[C@@H](O)[C@H](O)[C@H]5O)[C@@H](O)[C@H](O)[C@H]4O)[C@H](OC)[C@H]3O)CC[C@]12C (stereo partly drawn)
2. CC1=CC(=O)[C@@]2(C(C)C)C[C@@H]12
3. C[C@]12CCC[C@](C)(C(=O)O)C1CCC13CC(CO)C(CCC12)C3 (stereo partly drawn)
4. COc1cc(-c2nn(C3CCC(N4CCN(C(C)=O)CC4)CC3)c3ncnc(N)c23)ccc1NC(=O)c1cc2ccccc2n1C (stereo not drawn)
5. CC(=O)OCC(=O)Nc1cc(C#N)cc(NC(=O)COC(C)=O)c1Cl
6. CC12CC34CC(O)C5C(CO)(CO)CC(=O)CC5(C)C3CC1C2C4 (stereo not drawn)
7. C[C@@H]1O[C@@H](O[C@@H]2CO[C@@H](O[C@H]3CC[C@@]4(C)C(CC[C@]5(C)C4CC=C4[C@@H]6CC(C)(C)CC[C@]6(C(=O)O[C@@H]6O[C@H](CO)[C@@H](O)[C@H](O)[C@H]6O)CC[C@]45C)[C@]3(C)CO)[C@H](O)[C@H]2O[C@@H]2O[C@H](CO)[C@@H](O)[C@H](O)[C@H]2O)[C@H](O)[C@H](O)[C@H]1O (stereo partly drawn)
8. CC(O)C1NC(=O)C2CCCN2C1=O (stereo not drawn)

## Output
7.14
17.7
-19.1
17.1
2.33
5.34
-16.1
-25.2
